FYI, the data here is from the supplement of paper PMC10567573.

B1: C22orf15 (parent)
chain: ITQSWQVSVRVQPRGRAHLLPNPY

- Variants of: B1
- assay_method_text: protein stability index of a GFP-peptide fusion (GPS, HEK-293T) (PSI 1-6); higher = more stable;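 also: lentivirally expressed fusions sorted by FACS into six bins by GFP to DsRed ratio, PSI derived from sequencing read proportions per bin multiplied by bin number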
- run_parameters: c terminus: a fixed tail appended
Kindly supply the reported protein stability index values for the records listed here.
# print the numeric value only

Lab note: V9I gave protein stability index of 2.64

Lab note: Y24T gave protein stability index of 2.34

Lab note: N22I gave protein stability index of 2.39

Lab note: Y24I gave protein stability index of 2.29

Lab note: P13V gave protein stability index of 3.02

Lab note: R10L gave protein stability index of 2.47

Lab note: R10C gave protein stability index of 1

Lab note: L20A gave protein stability index of 1.91

Lab note: R10T gave protein stability index of 1.98

Lab note: N22K gave protein stability index of 2.17

Lab note: R16Y gave protein stability index of 3.74
